Below is a list of entries, each paired with its recorded FACS-Seq fitted mean (log10) value.
B1: library; a variant is named by its letters at N, in order (parent)
chain: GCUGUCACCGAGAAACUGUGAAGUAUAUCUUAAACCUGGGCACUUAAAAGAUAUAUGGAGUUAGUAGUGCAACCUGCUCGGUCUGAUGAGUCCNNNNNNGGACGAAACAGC

Variants of: B1
Assay: FACS-Seq fitted mean relative fluorescence mCherry/BFP with ligand (log10 relative fluorescence); HEK293T; ligand: cyclic di-GMP (c-di-GMP-II aptamer); ligand concentration (+) FACS-Seq: 1 mM; higher = higher reporter protein expression
Details: ligand present: yes
# output: bare number, no unit

>  <VARIANT LABEL>
CAGUAU

>  <ASSAY METRIC>
FACS-Seq fitted mean (log10)

>  <NUMERIC VALUE>
-0.197

$$$$
>  <VARIANT LABEL>
UACCAU

>  <ASSAY METRIC>
FACS-Seq fitted mean (log10)

>  <NUMERIC VALUE>
-0.0951

$$$$
>  <VARIANT LABEL>
ACCUAU

>  <ASSAY METRIC>
FACS-Seq fitted mean (log10)

>  <NUMERIC VALUE>
-0.113

$$$$
>  <VARIANT LABEL>
GGCGAG

>  <ASSAY METRIC>
FACS-Seq fitted mean (log10)

>  <NUMERIC VALUE>
-0.498

$$$$

Exercise: Which measured FACS-Seq fitted mean (log10) value corresponds to ACUCUU ?
Key: -0.112

Exercise: Repeat for the following variant: GCAGAA
Key: -0.367

Exercise: Repeat for the following variant: CGUCUA
Key: 0.127

Exercise: Repeat for the following variant: AGACUA
Key: 0.261

Exercise: Repeat for the following variant: GCGACG
Key: -0.216

Exercise: Repeat for the following variant: ACAGUU
Key: -0.312

Exercise: Repeat for the following variant: GCCGAC
Key: -0.145
